test system: DNA; experiment: Binding affinity to calf thymus DNA assessed as intercalation after 2 hrs by UV-Vis absorption titration analysis; format: nucleic-acid assay; details: Bos taurus
valueKind: K

Some solved cases for reference:
| recordSmiles | valueKind | obsValue |
| --- | --- | --- |
| COc1ccc2cc3[n+](cc2c1OCCOCCN1CCCCC1)CCc1cc2c(cc1-3)OCO2 | K | 1.49 ×10⁶ /M |
| COc1ccc2cc3[n+](cc2c1OCCN1CCCCC1)CCc1cc2c(cc1-3)OCO2 | K | 1.27 ×10⁸ /M |
| COc1ccc2cc3[n+](cc2c1OCCN1CCOCC1)CCc1cc2c(cc1-3)OCO2 | K | 3.55 ×10⁸ /M |
| COc1ccc2cc3[n+](cc2c1OCCOCCOCCN1CCOCC1)CCc1cc2c(cc1-3)OCO2 | K | 3.45 ×10⁵ /M |

Lab book: K of `COc1ccc2cc3[n+](cc2c1OCCOCCN1CCOCC1)CCc1cc2c(cc1-3)OCO2` noted as 6.32 ×10⁶ /M

What the record says about `COc1ccc2cc3[n+](cc2c1OCCOCCOCCN1CCCCC1)CCc1cc2c(cc1-3)OCO2` : K is 1.86 ×10⁵ /M

====

test system: DNA; test: Binding affinity to calf thymus DNA assessed as intercalation after 2 hrs by Stern-Volmer plot relative to control; type: nucleic-acid assay; details: Bos taurus
valueKind: KSV (×10⁵ /M)

Previously resolved entries follow.
| recordSmiles | measuredTarget | KSV (×10⁵ /M) |
| --- | --- | --- |
| COc1ccc2cc3[n+](cc2c1OCCOCCN1CCOCC1)CCc1cc2c(cc1-3)OCO2 | DNA | 1.82 |
| COc1ccc2cc3[n+](cc2c1OCCN1CCOCC1)CCc1cc2c(cc1-3)OCO2 | DNA | 1.27 |

I = COc1ccc2cc3[n+](cc2c1OCCOCCOCCN1CCCCC1)CCc1cc2c(cc1-3)OCO2
II = COc1ccc2cc3[n+](cc2c1OCCOCCOCCN1CCOCC1)CCc1cc2c(cc1-3)OCO2
Lookup: Pick one, I or II : lowest reported KSV. Answer by quoting the chosen item's label.
Found: I

====

tested on: DNA; experiment: Binding affinity to calf thymus DNA assessed as change in melting temperature at 100 uM by spectroscopic analysis; type: nucleic-acid assay; settings: Bos taurus
valueKind: ΔTm (°C)

Look over these answered cases.
| recordSmiles | measuredTarget | obsValue |
| --- | --- | --- |
| COc1ccc2cc3[n+](cc2c1OCCOCCOCCN1CCOCC1)CCc1cc2c(cc1-3)OCO2 | DNA | 1.2 |
| COc1ccc2cc3[n+](cc2c1OCCOCCOCCN1CCCCC1)CCc1cc2c(cc1-3)OCO2 | DNA | 1.3 |
| COc1ccc2cc3[n+](cc2c1OCCOCCN1CCOCC1)CCc1cc2c(cc1-3)OCO2 | DNA | 1.7 |
| COc1ccc2cc3[n+](cc2c1OCCOCCN1CCCCC1)CCc1cc2c(cc1-3)OCO2 | DNA | 1.5 |

P = COc1ccc2cc3[n+](cc2c1OCCN1CCOCC1)CCc1cc2c(cc1-3)OCO2
Q = COc1ccc2cc3[n+](cc2c1OCCN1CCCCC1)CCc1cc2c(cc1-3)OCO2
Lookup: Of P and Q , which carries the smaller reported ΔTm figure? Respond with the label that goes with your answer.
Found: P
(P: 1.4 °C, Q: 2.2 °C)
